Each record here notes measured activity at 10 µg/mL.
System: K562 ALDH (−) fraction (general cancer cells)
Experiment: Cancer stem-cell selective inhibitory action against chronic myelocytic leukemia cells, ALDH (−) fraction, CellTiter-Glo
Type: cell-based, Human
Conditions: Homo sapiens, 10 μg/ml, 24 hours, relative to 0.1% DMSO, read-out: ALDH(−) (growth rate)
Kindly answer with a numeric value in %, unit omitted.

Example cases with answers are listed next.
COc1ccc(N2c3ccc(/C=C/C4=[N+](CCC(=O)O)c5ccccc5C4(C)C)cc3C3CCCC32)cc1 (stereo not shown): 90
CCn1c2ccccc2c2cc(/C=C/C3=[N+](C)c4ccccc4C3(C)C)ccc21: 20
CCN1c2ccc(/C=C/C3=[N+](C)c4ccccc4C3(C)C)cc2C2CCCC21 (stereo not shown): 24

Tell me activity at 10 µg/mL reported for COc1ccc(N2c3ccc(/C=C/C4=[N+](C)c5ccccc5C4(C)C)cc3C3CCCC32)cc1 (stereo not shown)
11
